TARGET SYSTEM: human STAT6/pIL-4Rα (Homo sapiens)
Construct: histidine tag
Sequence (P42226 123-658): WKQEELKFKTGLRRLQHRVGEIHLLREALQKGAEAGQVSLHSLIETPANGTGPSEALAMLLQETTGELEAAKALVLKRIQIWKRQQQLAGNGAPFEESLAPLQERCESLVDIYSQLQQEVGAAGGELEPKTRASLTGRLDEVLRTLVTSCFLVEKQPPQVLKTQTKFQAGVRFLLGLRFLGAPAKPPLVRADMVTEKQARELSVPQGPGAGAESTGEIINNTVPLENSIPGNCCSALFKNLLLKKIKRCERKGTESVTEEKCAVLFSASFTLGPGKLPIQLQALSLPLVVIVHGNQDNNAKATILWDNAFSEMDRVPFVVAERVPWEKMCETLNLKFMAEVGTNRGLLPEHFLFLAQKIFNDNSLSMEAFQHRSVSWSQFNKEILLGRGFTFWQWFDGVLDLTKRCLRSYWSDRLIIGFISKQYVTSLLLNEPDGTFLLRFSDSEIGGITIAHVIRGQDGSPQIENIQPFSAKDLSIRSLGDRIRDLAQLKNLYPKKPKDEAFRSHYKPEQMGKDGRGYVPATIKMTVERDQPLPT
METHOD SUMMARY: Binding inhibitory activity between human STAT6/pIL-4Rα by fluorescence polarization method
TEST PARAMETERS: rhSTAT6 (123-658) / FAM-pIL-4Rα peptide
Below, each entry is listed with its recorded IC50.
MEASUREMENT KIND: IC50

[
  {
    "COMPOUND": "CCn1c(-c2ccc(-n3c(C)nn(C)c3=O)cc2)cc2cc(C(F)(F)F)cc(C(=O)Nc3cccc(C(N)=O)c3)c21 [Ex. 37]",
    "TARGET SYSTEM": "human STAT6/pIL-4Rα (Homo sapiens)",
    "RESULT": "250 nM"
  },
  {
    "COMPOUND": "CCn1c(-c2ccc(-n3c(C)nn(C)c3=O)cc2)cc2cc(C)cc(C(=O)Nc3ccc(F)c(C(N)=O)c3)c21 [Ex. 32]",
    "TARGET SYSTEM": "human STAT6/pIL-4Rα (Homo sapiens)",
    "RESULT": "420 nM"
  },
  {
    "COMPOUND": "CC1CC(C)N(c2ccc(-c3cc4ccnc(C(=O)Nc5cccc(C(N)=O)c5F)c4n3CC3(C#N)CC3)cc2)C1=O (single isomer, unassigned) [Ex. 223]",
    "TARGET SYSTEM": "human STAT6/pIL-4Rα (Homo sapiens)",
    "RESULT": "320 nM"
  },
  {
    "COMPOUND": "COCCn1c(-c2ccc(-n3c(C)nn(C)c3=O)cc2)cc2cc(C(F)(F)F)cc(C(=O)Nc3cccc(C(=O)Nc4cccc(COC)n4)c3)c21 [Ex. 174]",
    "TARGET SYSTEM": "human STAT6/pIL-4Rα (Homo sapiens)",
    "RESULT": "680 nM"
  },
  {
    "COMPOUND": "CCn1c(-c2ccc3c(c2)CCN3C(C)=O)nc2cc(Br)cc(C(=O)Nc3cccc(C(N)=O)c3)c21 [Ex. 8]",
    "TARGET SYSTEM": "human STAT6/pIL-4Rα (Homo sapiens)",
    "RESULT": "410 nM"
  },
  {
    "COMPOUND": "CCn1c(-c2ccc(-n3c(C)nn(C)c3=O)cc2)cc2ccnc(C(=O)Nc3ccc(F)c(C(=O)Nc4cc[nH]n4)c3)c21 [Ex. 185]",
    "TARGET SYSTEM": "human STAT6/pIL-4Rα (Homo sapiens)",
    "RESULT": "470 nM"
  },
  {
    "COMPOUND": "CCn1c(-c2ccc(-n3c(C)nn(C)c3=O)cc2)cc2ccnc(C(=O)Nc3cccc(C(=O)Nc4c(C)ccn(C)c4=O)c3)c21 [Ex. 188]",
    "TARGET SYSTEM": "human STAT6/pIL-4Rα (Homo sapiens)",
    "RESULT": "320 nM"
  },
  {
    "COMPOUND": "COCCn1c(-c2ccc(N3C(=O)C(C)CC3C)cc2)cc2ccnc(C(=O)Nc3cccc(C(N)=O)c3)c21 (centres unmarked) [Ex. 136]",
    "TARGET SYSTEM": "human STAT6/pIL-4Rα (Homo sapiens)",
    "RESULT": "480 nM"
  },
  {
    "COMPOUND": "COCCn1c(-c2ccc(-n3c(C)nn(C)c3=O)cc2)cc2cc(C(F)(F)F)nc(C(=O)Nc3cccc(C(N)=O)c3)c21 [Ex. 91]",
    "TARGET SYSTEM": "human STAT6/pIL-4Rα (Homo sapiens)",
    "RESULT": "250 nM"
  },
  {
    "COMPOUND": "COCCn1c(-c2ccc(-n3c(C)nn(C)c3=O)cc2)cc2cc(C(F)(F)F)cc(C(=O)Nc3cccc(OC)n3)c21 [Ex. 78]",
    "TARGET SYSTEM": "human STAT6/pIL-4Rα (Homo sapiens)",
    "RESULT": "340 nM"
  },
  {
    "COMPOUND": "COCCn1c(-c2ccc(-n3c(C)nn(C)c3=O)cc2)cc2cc(C(F)(F)F)cc(C(=O)Nc3cccnn3)c21 [Ex. 87]",
    "TARGET SYSTEM": "human STAT6/pIL-4Rα (Homo sapiens)",
    "RESULT": "1000 nM"
  },
  {
    "COMPOUND": "CCn1c(-c2ccc(-n3c(C)nn(C)c3=O)cc2)cc2c(Cl)ccc(C(=O)Nc3ccc(F)c(C(N)=O)c3)c21 [Ex. 68]",
    "TARGET SYSTEM": "human STAT6/pIL-4Rα (Homo sapiens)",
    "RESULT": "350 nM"
  },
  {
    "COMPOUND": "CCn1c(-c2ccc(-n3c(C)nn(C)c3=O)cc2)cc2cc(C(F)(F)F)cc(C(=O)Nc3ccc(CC(=O)NC)cc3)c21 [Ex. 104]",
    "TARGET SYSTEM": "human STAT6/pIL-4Rα (Homo sapiens)",
    "RESULT": "730 nM"
  },
  {
    "COMPOUND": "CCn1c(-c2ccc(-n3c(C)nn(C)c3=O)cn2)cc2cc(C(F)(F)F)cc(C(=O)Nc3cccc(C(N)=O)c3F)c21 [Ex. 19]",
    "TARGET SYSTEM": "human STAT6/pIL-4Rα (Homo sapiens)",
    "RESULT": "360 nM"
  }
]

====

TARGET SYSTEM: human STAT6/pIL-4Rα (Homo sapiens, UniProt P42226)
Construct: histidine tag
METHOD SUMMARY: Binding inhibitory activity between human STAT6/pIL-4Rα by fluorescence polarization method
TEST PARAMETERS: rhSTAT6 (123-658) / FAM-pIL-4Rα peptide
Threshold 400 nM. IC50 below it: Condition met. IC50 at it or above: Condition not met.

[
  {
    "COMPOUND": "CCn1c(-c2ccc(-n3c(C)nn(C)c3=O)cc2)cc2cccc(C(=O)Nc3ccc(F)c(C(N)=O)c3)c21 [Ex. 17]",
    "TARGET SYSTEM": "human STAT6/pIL-4Rα (Homo sapiens, UniProt P42226)",
    "LABEL CLASS": "Condition met"
  },
  {
    "COMPOUND": "COCCn1c(-c2ccc(-n3c(C)nn(C)c3=O)cc2)cc2cc(C(F)(F)F)cc(C(=O)Nc3nncs3)c21 [Ex. 79]",
    "TARGET SYSTEM": "human STAT6/pIL-4Rα (Homo sapiens, UniProt P42226)",
    "LABEL CLASS": "Condition not met"
  },
  {
    "COMPOUND": "CNC(=O)c1cccc(NC(=O)c2cc(C(F)(F)F)cc3cc(-c4ccc(-n5c(C)nn(C)c5=O)cc4)n(CCOC)c23)n1 [Ex. 172]",
    "TARGET SYSTEM": "human STAT6/pIL-4Rα (Homo sapiens, UniProt P42226)",
    "LABEL CLASS": "Condition met"
  },
  {
    "COMPOUND": "CCn1c(-c2ccc(-n3cnn(C)c3=O)cc2)cc2cc(C(F)(F)F)cc(C(=O)Nc3cccc(C(N)=O)c3)c21 [Ex. 35]",
    "TARGET SYSTEM": "human STAT6/pIL-4Rα (Homo sapiens, UniProt P42226)",
    "LABEL CLASS": "Condition met"
  },
  {
    "COMPOUND": "CCn1c(-c2ccc(-n3nccn3)cc2)nc2cc(Br)cc(C(=O)Nc3cccc(C(N)=O)c3)c21 [Ex. 6]",
    "TARGET SYSTEM": "human STAT6/pIL-4Rα (Homo sapiens, UniProt P42226)",
    "LABEL CLASS": "Condition not met"
  },
  {
    "COMPOUND": "COCCn1c(-c2ccc(-n3c(C)nn(C)c3=O)cc2)cc2cc(C(F)(F)F)cc(C(=O)Nc3cccc(C(=O)Nc4cc[nH]n4)c3)c21 [Ex. 163]",
    "TARGET SYSTEM": "human STAT6/pIL-4Rα (Homo sapiens, UniProt P42226)",
    "LABEL CLASS": "Condition met"
  }
]
